Just for reference, patent US20210070748A1 is where these values come from.

Biological target: LCK (Homo sapiens, UniProt P06239)
Sequence (P06239 whole entry): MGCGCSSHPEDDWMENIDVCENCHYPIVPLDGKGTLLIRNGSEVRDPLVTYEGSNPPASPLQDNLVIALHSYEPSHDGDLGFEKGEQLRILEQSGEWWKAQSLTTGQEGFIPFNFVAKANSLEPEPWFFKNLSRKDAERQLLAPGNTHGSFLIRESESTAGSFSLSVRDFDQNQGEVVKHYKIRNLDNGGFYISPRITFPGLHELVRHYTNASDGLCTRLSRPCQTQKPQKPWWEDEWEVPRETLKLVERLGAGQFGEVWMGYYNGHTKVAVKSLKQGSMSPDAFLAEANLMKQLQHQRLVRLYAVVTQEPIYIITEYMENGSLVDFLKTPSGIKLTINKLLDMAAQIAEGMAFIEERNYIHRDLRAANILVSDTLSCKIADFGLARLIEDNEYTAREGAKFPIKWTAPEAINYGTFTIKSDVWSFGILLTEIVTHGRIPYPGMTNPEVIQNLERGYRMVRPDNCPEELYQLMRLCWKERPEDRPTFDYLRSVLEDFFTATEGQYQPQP
Experiment: Inhibition of a panel of kinases, in vitro HotSpot kinase assay: LCK
Format: biochemical
Settings: D-compounds panel data; 1 μM ATP; read-out: IC50 LCK
pIC50: −log10 of the molar value.
property_name: pIC50

Read the entry C[C@@H]1[C@H](NC(=O)c2ccc(C3CC3)cc2)CCCN1c1cnc(C(N)=O)c(Nc2cc(C3CCN(C4CCCC4)CC3)ns2)n1 and write its reported pIC50.
7.00 to 8.00

Look up pIC50 of C[C@@H]1[C@H](NC(=O)c2cnn(C(C)(C)C)c2)CCCN1c1cnc(C(N)=O)c(Nc2cnn(C)c2)n1 and report it.
6.00 to 7.00

Give the reported value of pIC50 for this record: C[C@@H]1[C@H](NC(=O)c2ccc(C3CC3)cc2)CCCN1c1cnc(C(N)=O)c(Nc2cc(C3CCOCC3)ns2)n1
7.00 to 8.00

Assign pIC50 to the following record: C[C@@H]1[C@H](NC(=O)c2ccc(C3CC3)cc2)CCCN1c1cnc(C(N)=O)c(Nc2ccc(N3CCN(C)CC3)cc2)n1
7.00 to 8.00

Provide measured pIC50 value, entry: C[C@@H]1[C@H](NC(=O)c2cnc(C3CC3)cn2)CCCN1c1cnc(C(N)=O)c(Nc2cnn(C)c2)n1
7.00 to 8.00

Given the compound CC(C)n1cc(Nc2nc(N3CCC[C@@H](NC(=O)c4ccc(C5CC5)cc4F)[C@H]3C)cnc2C(N)=O)cn1 , write its reported pIC50.
6.00 to 7.00

Give a short answer stating reported pIC50 for C[C@@H]1[C@H](NC(=O)N(C)C)CCCN1c1cnc(C(N)=O)c(Nc2ccc(N3CCN(C)CC3)cc2F)n1 .
5.00 to 6.00

Please list pIC50 recorded for the compound C[C@@H]1[C@H](NC(=O)c2ccc(C3CC3)cc2F)CCCN1c1cnc(C(N)=O)c(Nc2ccc(S(=O)(=O)N3CCN(C)CC3)cc2)n1
5.00 to 6.00

Note pIC50 for the compound shown: Cc1cc(Nc2nc(N3C[C@@H](NC(=O)N(C)C)CC[C@@H]3C)cnc2C(N)=O)sn1
< 5.00

Please supply the value of reported pIC50 for the item C[C@@H]1[C@H](NC(=O)c2ccc(C(O)C(F)(F)F)cc2)CCCN1c1cnc(C(N)=O)c(Nc2cnn(C)c2)n1 (single isomer, unassigned) [Example D-249]
7.00 to 8.00

Tell us which pIC50 value is on record for C[C@@H]1[C@H](NC(=O)c2ccc(C3CC3)cc2F)CCCN1c1cnc(C(N)=O)c(Nc2ccc(S(C)(=O)=O)cc2)n1
6.00 to 7.00

Give the measured pIC50 for C[C@@H]1[C@H](NC(=O)c2ccc(C(F)(F)F)nc2)CCCN1c1cnc(C(N)=O)c(Nc2cnn(C)c2)n1
7.00 to 8.00

Give reported pIC50 value for Cn1cc(Nc2nc(N3CCC[C@H]4[C@@H]3CCN4C(=O)c3ccc(C4CC4)cc3)cnc2C(N)=O)cn1
6.00 to 7.00
